Entries annotated with measured MIC
- Test system: Streptococcus pyogenes
- assay_text: Antibacterial activity against Streptococcus pyogenes 308A
- Format: functional

smiles_str	MIC
CO/N=C(\CNC(N)=O)[C@@H]1C[C@H](SC2=C(C(=O)O)N3C(=O)[C@H]([C@@H](C)O)[C@H]3[C@H]2C)CN1	< 0.01 µg/mL
CO/N=C(\CN)[C@@H]1C[C@H](SC2=C(C(=O)O)N3C(=O)[C@H]([C@@H](C)O)[C@H]3[C@H]2C)CN1	< 0.01 µg/mL
CO/N=C(\CNC(C)=O)[C@@H]1C[C@H](SC2=C(C(=O)O)N3C(=O)[C@H]([C@@H](C)O)[C@H]3[C@H]2C)CN1	0.013 µg/mL
